- study-target: SbtB-Δ104 (Synechocystis sp. PCC 6803)
- Construct: C-terminal R-loop truncated, StrepII-tagged, recombinant, trimer
- Sequence (P73954 1-104, stated change not applied): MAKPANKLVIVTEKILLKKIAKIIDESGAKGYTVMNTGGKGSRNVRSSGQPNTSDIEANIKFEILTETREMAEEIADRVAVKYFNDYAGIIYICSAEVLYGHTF
- assay-name: ITC, one set of sites model
experimental-readout: Kd (µM)
Give the value, in units of µM, as a plain number.

Given Nc1ncnc2c1ncn2[C@@H]1O[C@H](COP(=O)(O)O)[C@@H](O)[C@H]1O , report its Kd on SbtB-Δ104 (Synechocystis sp. PCC 6803).
78.2

Under SbtB-Δ104 (Synechocystis sp. PCC 6803), report Kd for Nc1ncnc2c1ncn2[C@@H]1O[C@H](COP(=O)(O)OP(=O)(O)OP(=O)(O)O)[C@@H](O)[C@H]1O
35

// fetch Kd for Nc1ncnc2c1ncn2[C@@H]1O[C@H](COP(=O)(O)OP(=O)(O)O)[C@@H](O)[C@H]1O ; system: SbtB-Δ104 (Synechocystis sp. PCC 6803)
79.2
